Give measured MIC for each item. Keep answers brief.
test system: Pseudomonas aeruginosa; test: In vitro minimum inhibitory concentration for Pseudomonas aeruginosa (ATCC-27853) by agar dilution method; type: functional; conditions: Pseudomonas aeruginosa; read-out: MIC
Output spec: scalar in µg/mL, unitless text.

QUERY: State, in one line, measured MIC of Cc1c(N)nc(SCC2=C(C(=O)[O-])N3C(=O)C(NC(=O)/C(=N\OC(C)(C)C(=O)O)c4cnc(N)s4)C3SC2)[n+]2nc(C)n(C)c12 (centres undefined)
RESULT: 4

QUERY: Check the records and state MIC for C[n+]1cc(Cc2ccccc2)c(N)nc1SCC1=C(C(=O)[O-])N2C(=O)C(NC(=O)/C(=N\OC(C)(C)C(=O)O)c3cnc(N)s3)C2SC1 (centres undefined)
RESULT: 8

QUERY: Identify measured MIC corresponding to C[n+]1c(O)cc(O)nc1SCC1=C(C(=O)[O-])N2C(=O)C(NC(=O)/C(=N\OC(C)(C)C(=O)O)c3cnc(N)s3)C2SC1 (centres undefined)
RESULT: 16

QUERY: Give the reported MIC for this molecule. CC(C)(O/N=C(\C(=O)NC1C(=O)N2C(C(=O)[O-])=C(CSc3nc(N)cc(N)[n+]3-c3ccc(O)cc3)CSC12)c1cnc(N)s1)C(=O)O (centres undefined)
RESULT: 1

QUERY: Provide MIC value for the following molecule: Cc1cc(C)[n+](C)c(SCC2=C(C(=O)[O-])N3C(=O)C(NC(=O)/C(=N\OC(C)(C)C(=O)O)c4cnc(N)s4)C3SC2)n1 (centres undefined)
RESULT: 4

QUERY: Supply measured MIC of CC(C)(O/N=C(\C(=O)NC1C(=O)N2C(C(=O)[O-])=C(CSc3nc(N)c4c([n+]3N)CCCC4)CSC12)c1cnc(N)s1)C(=O)O (centres undefined) in your reply.
RESULT: 2

QUERY: Fill in MIC for record CC(C)(O/N=C(\C(=O)NC1C(=O)N2C(C(=O)[O-])=C(CSc3nc(N)cc(N)[n+]3-c3ccc(Cl)cc3)CSC12)c1cnc(N)s1)C(=O)O (centres undefined)
RESULT: 2

QUERY: Given C[n+]1cccnc1SCC1=C(C(=O)[O-])N2C(=O)C(NC(=O)/C(=N\OC(C)(C)C(=O)O)c3cnc(N)s3)C2SC1 (centres undefined) , respond with its MIC.
RESULT: 8

QUERY: Look up and report measured MIC for this entry: Cc1cc(C)nc(SCC2=C(C(=O)O)N3C(=O)C(NC(=O)/C(=N\OC(C)(C)C(=O)O)c4cnc(N)s4)C3SC2)n1 (centres undefined)
RESULT: 32

QUERY: Give the value of MIC reported for the following: Cn1cn[n+]2c(SCC3=C(C(=O)[O-])N4C(=O)C(NC(=O)/C(=N\OC(C)(C)C(=O)O)c5cnc(N)s5)C4SC3)nc(N)cc12 (centres undefined)
RESULT: 2

QUERY: Consider the molecule Cn1cc[n+]2c(SCC3=C(C(=O)[O-])N4C(=O)C(NC(=O)/C(=N\OC(C)(C)C(=O)O)c5cnc(N)s5)C4SC3)nc(N3CCOCC3)cc12 (centres undefined) and give its recorded MIC.
RESULT: 4

QUERY: Report measured MIC; entry is CN[n+]1c(N)cc(N)nc1SCC1=C(C(=O)[O-])N2C(=O)C(NC(=O)/C(=N\OC(C)(C)C(=O)O)c3cnc(N)s3)C2SC1 (centres undefined)
RESULT: 8

QUERY: Annotate the molecule CC(C)(O/N=C(\C(=O)NC1C(=O)N2C(C(=O)O)=C(CSc3ncccn3)CSC12)c1cnc(N)s1)C(=O)O (centres undefined) with its measured MIC.
RESULT: 16

====

test system: Salmonella typhimurium; test: In vitro minimum inhibitory concentration for Salmonella Typhimurium (ATCC-14028) by agar dilution method; assay type: functional, Salmonella enterica subsp. enterica serovar Typhimurium; settings: Salmonella enterica; read-out: MIC
Exercise: state measured MIC for each of the compounds provided.
Numbers only here, please. The scale is µg/mL.

QUERY: In one line, give reported MIC of the entry CC(C)(O/N=C(\C(=O)NC1C(=O)N2C(C(=O)O)=C(CSc3nccc(N)n3)CSC12)c1cnc(N)s1)C(=O)O (configuration not stated) .
RESULT: 1

QUERY: Read the entry CN[n+]1c(N)cc(N)nc1SCC1=C(C(=O)[O-])N2C(=O)C(NC(=O)/C(=N\OC(C)(C)C(=O)O)c3cnc(N)s3)C2SC1 (configuration not stated) and write its reported MIC.
RESULT: 1

QUERY: Answer with the recorded MIC of CC(C)(O/N=C(\C(=O)NC1C(=O)N2C(C(=O)[O-])=C(CSc3nc(N)cc(N)[n+]3-c3ccc(O)cc3)CSC12)c1cnc(N)s1)C(=O)O (configuration not stated) only.
RESULT: 0.5

QUERY: Read the entry CC(C)(O/N=C(\C(=O)N[C@@H]1C(=O)N2C(C(=O)[O-])=C(C[n+]3ccccc3)CS[C@H]12)c1csc(N)n1)C(=O)O and write its reported MIC.
RESULT: 0.25

QUERY: Consider the compound C[n+]1cccnc1SCC1=C(C(=O)[O-])N2C(=O)C(NC(=O)/C(=N\OC(C)(C)C(=O)O)c3cnc(N)s3)C2SC1 (configuration not stated) and give its recorded MIC.
RESULT: 1

QUERY: Give the reported value of MIC for this record: Cc1cc(C)nc(SCC2=C(C(=O)O)N3C(=O)C(NC(=O)/C(=N\OC(C)(C)C(=O)O)c4cnc(N)s4)C3SC2)n1 (configuration not stated)
RESULT: 4

QUERY: // Input: C[n+]1ccc(N)nc1SCC1=C(C(=O)[O-])N2C(=O)C(NC(=O)/C(=N\OC(C)(C)C(=O)O)c3cnc(N)s3)C2SC1 (configuration not stated) . Output its MIC only.
RESULT: 0.13

====

tested on: Salmonella typhimurium; assay: In vitro minimum inhibitory concentration for Salmonella Typhimurium (ATCC-14028) by agar dilution method; format: functional, Salmonella enterica subsp. enterica serovar Typhimurium; conditions: Salmonella enterica; read-out: MIC
Please respond with reported log10 MIC for every item in the list.
Reminder: these figures are log10 of reported MIC, in µg/mL before transformation.

QUERY: Tell me its log10 MIC on Salmonella typhimurium: CC(C)(O/N=C(\C(=O)NC1C(=O)N2C(C(=O)[O-])=C(CSc3nc(N)cc(N)[n+]3-c3ccccc3)CSC12)c1cnc(N)s1)C(=O)O (centres undefined)
RESULT: -0.30

QUERY: Find log10 MIC for COc1cc(N)nc(SCC2=C(C(=O)[O-])N3C(=O)C(NC(=O)/C(=N\OC(C)(C)C(=O)O)c4cnc(N)s4)C3SC2)[n+]1C (centres undefined) on Salmonella typhimurium and write it down.
RESULT: -0.60

QUERY: Specify the recorded log10 MIC for CC(C)(O/N=C(\C(=O)NC1C(=O)N2C(C(=O)O)=C(CSc3ncccn3)CSC12)c1cnc(N)s1)C(=O)O (centres undefined) , system: Salmonella typhimurium.
RESULT: 0.30

QUERY: Retrieve log10 MIC on Salmonella typhimurium; query CC(C)(O/N=C(\C(=O)NC1C(=O)N2C(C(=O)O)=C(CSc3nc(O)cc(O)n3)CSC12)c1cnc(N)s1)C(=O)O (centres undefined)
RESULT: 0.90

QUERY: Report value: log10 MIC, system: Salmonella typhimurium, compound: CCC[n+]1c(N)cc(N)nc1SCC1=C(C(=O)[O-])N2C(=O)C(NC(=O)/C(=N\OC(C)(C)C(=O)O)c3cnc(N)s3)C2SC1 (centres undefined)
RESULT: -0.60

QUERY: Report log10 MIC under test system Salmonella typhimurium for CC(C)(O/N=C(\C(=O)NC1C(=O)N2C(C(=O)[O-])=C(CSc3nc(N)c4c([n+]3N)CCCC4)CSC12)c1cnc(N)s1)C(=O)O (centres undefined) .
RESULT: -0.89

QUERY: Check Salmonella typhimurium data and give log10 MIC for CC(C)(O/N=C(\C(=O)NC1C(=O)N2C(C(=O)[O-])=C(CSc3nc(N)c4c([n+]3N)CCC4)CSC12)c1cnc(N)s1)C(=O)O (centres undefined) .
RESULT: -0.89

QUERY: Answer with log10 MIC of Cn1cn[n+]2c(SCC3=C(C(=O)[O-])N4C(=O)C(NC(=O)/C(=N\OC(C)(C)C(=O)O)c5cnc(N)s5)C4SC3)nc(N)cc12 (centres undefined) measured for Salmonella typhimurium.
RESULT: -0.60

QUERY: Given CC(C)(O/N=C(\C(=O)NC1C(=O)N2C(C(=O)[O-])=C(CSc3nc(N)cc[n+]3N)CSC12)c1cnc(N)s1)C(=O)O (centres undefined) , report its log10 MIC on Salmonella typhimurium.
RESULT: -0.89

QUERY: Please tell me the measured log10 MIC for C/C=C/[n+]1c(N)cc(N)nc1SCC1=C(C(=O)[O-])N2C(=O)C(NC(=O)/C(=N\OC(C)(C)C(=O)O)c3cnc(N)s3)C2SC1 (centres undefined) ; system: Salmonella typhimurium.
RESULT: -0.60

QUERY: Using Salmonella typhimurium as the test system, report measured log10 MIC of CC(C)(O/N=C(\C(=O)NC1C(=O)N2C(C(=O)[O-])=C(CSc3nc(N)cc(N)[n+]3N)CSC12)c1cnc(N)s1)C(=O)O (centres undefined) .
RESULT: -0.89

QUERY: Look up and report log10 MIC, with Salmonella typhimurium as system, for CN(C)c1cc2n(C)cc[n+]2c(SCC2=C(C(=O)[O-])N3C(=O)C(NC(=O)/C(=N\OC(C)(C)C(=O)O)c4cnc(N)s4)C3SC2)n1 (centres undefined)
RESULT: -0.30

QUERY: Fill in log10 MIC for Cn1c(O)c[n+]2c(SCC3=C(C(=O)[O-])N4C(=O)C(NC(=O)/C(=N\OC(C)(C)C(=O)O)c5cnc(N)s5)C4SC3)nc(N)cc12 (centres undefined) tested with Salmonella typhimurium.
RESULT: -0.30

QUERY: GET log10 MIC where system = Salmonella typhimurium and item = CC(C)(O/N=C(\C(=O)NC1C(=O)N2C(C(=O)[O-])=C(CSc3nc(N)cc(N)[n+]3C3CC3)CSC12)c1cnc(N)s1)C(=O)O (centres undefined)
RESULT: -0.30
